test system: MDR1; experiment: MDCK-MDR1 permeability assay; assay type: in vitro ADME; settings: dog, pH 7.4, 60 min
experimental_endpoint: Papp at 60 min, 10 μM (×10⁻⁶ cm/s)

                                   molecule  experimental_endpoint  assay_value
0  CC1(C)CCC(C)(C)c2nc(C#Cc3ccc(C(=O)O)cc3)cnc21 [DC645]  Papp at 60 min, 10 μM         34.9

====

system: retinoic acid response element (RARE); experiment: X-Gal RA based reporter assay (genomic activity); type: cell-based; details: Sil-15 reporter cells, overnight incubation; read-out: Genomic Activity (X-Gal RA Based Reporter Assay) Potency (EC50)
pEC50: −log10 of the molar value.
Classification field: TRUE = pEC50 at or over 10; FALSE = pEC50 under 10.

>>> print(df.to_string())
                               input_smiles                           assay_target  qualitative_label
0  CC1(C)CCC(C)(C)c2cc(C#Cc3ccc(C(=O)O)c(F)c3)ccc21  retinoic acid response element (RARE)              FALSE
1  Cc1cc2c(cc1C#Cc1ccc(C(=O)O)cn1)C(C)(C)CCC2(C)C  retinoic acid response element (RARE)              FALSE
2  COc1cc2c(cc1C#Cc1ncc(C(=O)O)cn1)C(C)(C)CCC2(C)C  retinoic acid response element (RARE)              FALSE
3  CC1(C)CCC(C)(C)c2cc(C#Cc3ccc(C(=O)O)cn3)ccc21  retinoic acid response element (RARE)               TRUE
4  Cc1cc2c(cc1C#Cc1ccc(C(=O)O)cc1F)C(C)(C)CCC2(C)C  retinoic acid response element (RARE)              FALSE

====

test system: ERK1/2; assay: ERK1/2 phosphorylation assay, AlphaLISA SureFire Ultra (non-genomic activity); assay type: cell-based; parameters: unit not given here; conditions: SH-SY5Y cells, serum-free, 30 minutes stimulation
experimental_endpoint: Non-genomic activity (ERK½ Phosphorylation Assay) Efficacy (Emax)

>>> print(df.to_string())
                                   compound  assay_value
0  CC1(C)CCC(C)(C)c2cc(C#Cc3ccc(C(=O)O)cn3)ccc21 [DC527]        92.51
1  COc1cc2c(cc1C#Cc1cc(F)c(C(=O)O)c(F)c1)C(C)(C)CCC2(C)C [DC657]        72.45
2  Cc1cc2c(cc1C#Cc1ccc(C(=O)O)cc1F)C(C)(C)CCC2(C)C [DC559]        40.68
3  COc1cc2c(cc1C#Cc1ccc(C(=O)O)cc1F)C(C)(C)CCC2(C)C [DC564]        44.46
4  CC1(C)CCC(C)(C)c2cc(C#Cc3cnc(C(=O)O)cn3)ccc21 [DC529]        28.85
5  CC1(C)CCC(C)(C)c2cc(C#Cc3ccc(C(=O)O)cc3F)ccc21 [DC526]        50.22
6  Cc1cc2c(cc1C#Cc1ncc(C(=O)O)cn1)C(C)(C)CCC2(C)C [DC707]        44.87
7  CC1=C(/C=C/C(C)=C/C=C/C(C)=C/C(=O)O)C(C)(C)CCC1 [ATRA, All-trans-retinoic acid, reference compound]        48.55
8  CC1(C)CCC(C)(C)c2cc(C#Cc3ccc(C(=O)O)cc3)ccc21 [EC23, reference compound]        91.93
9  Cc1cc2c(cc1C#Cc1ccc(C(=O)O)cn1)C(C)(C)CCC2(C)C [DC656]        56.77

====

test system: retinoic acid response element (RARE); experiment: X-Gal RA based reporter assay (genomic activity); format: cell-based; conditions: Sil-15 reporter cells, overnight incubation; read-out: Genomic Activity (X-Gal RA Based Reporter Assay) Potency (EC50)
experimental_endpoint: EC50 (nM)

>>> df
                                   compound  experimental_endpoint  unit_tag  assay_value
0  CC1(C)CCC(C)(C)c2nc(C#Cc3ccc(C(=O)O)cc3)cnc21                   EC50        nM       0.0697
1  COc1cc2c(cc1C#Cc1cc(F)c(C(=O)O)c(F)c1)C(C)(C)CCC2(C)C                   EC50        nM        0.146
2  CC1(C)CCC(C)(C)c2cc(C#Cc3ccc(C(=O)O)cc3)ccc21 [EC23, reference compound]                   EC50        nM        0.128
3  CC1(C)CCC(C)(C)c2cc(C#Cc3ccc(C(=O)O)nc3)ccc21                   EC50        nM        0.146
